In this section we review reported OD450 values for a set of binders.
- measured.target: T1, naked peptide MEDYVNFNFT (human)
- T1 peptide: MEDYVNFNFT
- experiment.summary: ELISA naked peptide; scFv 1 ug/mL; repII
- Method: The peptides were synthesized naked or with a N-terminal Biotin modification with a purity of >98%. All four scFvs were verified by ELISA that can be detected with anti-His antibodies. ELISA was performed for scFv-peptide binding validation. Briefly, naked peptides were coated (50 μg/mL) in 0.58M carbonate-bicarbonate buffer pH9.5, 100 μL/well, 4° C. […]
Output spec: scalar in OD, unitless text.

binder | OD450 (OD)
CCR9_HUM2 scFv (humanized anti-CCR9 scFv, SEQ ID NO: 17 with C-terminal 6xHis tag) (scFv) scFv: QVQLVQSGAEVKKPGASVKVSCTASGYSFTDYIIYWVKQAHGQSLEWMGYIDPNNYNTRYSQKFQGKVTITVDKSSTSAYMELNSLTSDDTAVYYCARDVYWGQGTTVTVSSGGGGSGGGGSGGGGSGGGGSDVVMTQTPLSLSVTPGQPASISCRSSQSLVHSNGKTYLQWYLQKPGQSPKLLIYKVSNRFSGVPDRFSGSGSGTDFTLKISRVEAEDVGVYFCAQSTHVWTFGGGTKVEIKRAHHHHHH | 0.86
Comparative antibody 1 (Comp-1) scFv, SEQ ID NO: 10 from WO2023/037125 A1, His-tagged (scFv) scFv: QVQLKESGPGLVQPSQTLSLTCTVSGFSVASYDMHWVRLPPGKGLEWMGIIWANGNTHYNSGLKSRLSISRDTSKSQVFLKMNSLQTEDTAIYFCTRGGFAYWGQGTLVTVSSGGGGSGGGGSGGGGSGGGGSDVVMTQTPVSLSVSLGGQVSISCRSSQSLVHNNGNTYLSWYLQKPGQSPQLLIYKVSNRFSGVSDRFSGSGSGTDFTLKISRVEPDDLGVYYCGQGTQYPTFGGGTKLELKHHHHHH | 0.06

Attention now turns to another entry.
Entry Comparative antibody 3 (Comp-3) scFv, SR_92R (Somovilla-Crespo et al. 2018), His-tagged (scFv) scFv: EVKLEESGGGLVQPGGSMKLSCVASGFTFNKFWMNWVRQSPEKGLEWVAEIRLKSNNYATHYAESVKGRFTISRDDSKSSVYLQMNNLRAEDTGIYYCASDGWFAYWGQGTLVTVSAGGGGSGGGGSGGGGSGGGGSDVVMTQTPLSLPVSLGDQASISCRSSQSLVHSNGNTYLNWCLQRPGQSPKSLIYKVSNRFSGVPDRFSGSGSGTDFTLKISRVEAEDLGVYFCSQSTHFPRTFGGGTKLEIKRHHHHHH has what OD450? 0.06

Numbers sourced from patent US20260232732A1.
